- test_protocol: Solubility of saturated solutions in aqueous media, HPLC/UV
- Assay type: physicochemical
- run_conditions: usp buffer, pH 6, aqueous buffer, USP-Puffer pH 6,8; saturated solution, n=1, 30 min ultrasound; read-out: Löslichkeit
- Procedure: Insbesondere wurde zur Bestimmung der Schüttdichte jeweils etwa 250 ml Substanz, möglichst erschütterungsfrei in einen 250 ml Meßzylinder des Schütt-Stampf-Volumeters (Erweka SVM 22, Ser. Nr. 108.480.446) gefüllt und die Masse bestimmt (Schüttgewicht). Anschließend wurde der Meßzylinder 1250 Stampfvorgängen ausgesetzt, und das Stampfvolumen wurde abgelesen. Die Werte für die Schütt- bzw. Stampfdichte erhält man durch Division der Einwaage durch die jeweiligen Volumenwerte. […]
assay_endpoint: solubility thermodynamic at 0.5 h (µg/mL)
Use µg/mL as the unit, but write only the number.

Prompt line: Recorded solubility thermodynamic at 0.5 h of COc1ccc2nc([S@@+]([O-])Cc3ncc(C)c(OC)c3C)[nH]c2c1 [Magnesiumsalz des (-)-Enantiomers des Omeprazols] , please.
Response line: 900
